# Subject of test: Cytochrome P450 2C19 (Homo sapiens) (UniProt P33261)
# Sequence (P33261 whole entry, looked up): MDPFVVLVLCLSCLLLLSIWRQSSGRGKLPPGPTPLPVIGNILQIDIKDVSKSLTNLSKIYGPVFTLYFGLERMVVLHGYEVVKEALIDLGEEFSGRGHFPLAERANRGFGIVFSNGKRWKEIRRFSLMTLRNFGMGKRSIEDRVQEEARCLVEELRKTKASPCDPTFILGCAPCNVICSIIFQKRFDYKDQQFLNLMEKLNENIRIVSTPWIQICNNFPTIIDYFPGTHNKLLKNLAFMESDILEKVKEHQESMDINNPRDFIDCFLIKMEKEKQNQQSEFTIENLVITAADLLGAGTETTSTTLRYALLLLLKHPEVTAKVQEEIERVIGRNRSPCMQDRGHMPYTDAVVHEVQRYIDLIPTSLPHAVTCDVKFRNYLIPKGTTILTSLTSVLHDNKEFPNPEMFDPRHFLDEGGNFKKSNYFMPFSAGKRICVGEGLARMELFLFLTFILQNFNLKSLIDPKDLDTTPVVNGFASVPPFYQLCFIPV
# Procedure summary: Cytochrome panel assay with activity outcomes
# Conditions: recombinant CYP, pro-luciferin dealkylation, luminescence, p450-cyp2c19; series mostly up to 57.1 µM
# Method: The P450 gene superfamily is involved in the metabolism and clearance of xenobiotics. This assay used various human CYP P450 isozymes to measure the dealkylation of various pro-luciferin substrates to luciferin. The luciferin is then measured by luminescence after the addition of a luciferase detection reagent. […] Inhibitors and some substrates limit the production of luciferin, and decrease measured luminescence. […] 8, Detection, 1 sec, ViewLux luminescent read […]
Among all 16,000 compounds or so, about 5,800 (36%) were called active. Another 23% or so got no clear call; they are omitted. The call rests on the fitted dose curve; in most records, active means well fitted curve in the direction sought with a large enough effect; inconclusive means small, poorly fitted or top-dose-only effect, or effect the other way; inactive means no such curve, though single readings can be large or run the other way. Some of the results follow.
Your reply should match one of these outcome classes. active, inactive

Hi team, can someone confirm the assay call for "CCOC(=O)c1cc(C#N)c(Oc2ccccc2OC)nc1-c1ccccc1" ?
active

Hi team, can someone confirm the assay call for "O=C(Nc1cccnc1)c1ccc(COc2cc(Cl)ccc2Cl)o1" ?
active

Each recorded value in this set is attributed to PubChem BioAssay AID1851.
